# key: entry, value: koff
# test-system: T1, human FcRn/b2M (human, UniProt P61769 21-119, biotinylated)
# T1 construct: bought recombinant biotinylated protein (ACRO FCM-H82W4 or Immunitrack ITF01); also called hFcRn; hFcRn/hb2M
# T1 sequence (chain, as listed by the source limits assumed, chain 1 of 2): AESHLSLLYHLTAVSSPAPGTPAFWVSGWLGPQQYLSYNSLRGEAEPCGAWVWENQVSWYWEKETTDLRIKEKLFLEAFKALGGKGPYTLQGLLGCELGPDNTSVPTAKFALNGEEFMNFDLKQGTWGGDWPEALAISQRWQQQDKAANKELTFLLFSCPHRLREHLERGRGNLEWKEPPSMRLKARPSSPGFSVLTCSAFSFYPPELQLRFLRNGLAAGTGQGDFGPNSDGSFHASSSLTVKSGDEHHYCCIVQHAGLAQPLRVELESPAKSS
# T1 sequence (P61769 21-119 limits assumed, chain 2 of 2): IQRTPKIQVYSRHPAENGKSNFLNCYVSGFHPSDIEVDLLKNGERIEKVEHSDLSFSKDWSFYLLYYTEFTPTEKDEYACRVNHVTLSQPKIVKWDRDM
# method-summary: SPR pH 6.0;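 note: surface plasmon resonance kinetics at 25 °C, diluted periplasmic extracts injected over immobilized ligand surfaces, 120 s association then 600–3600 s dissociation, running buffer containing 150 mM NaCl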

{"binder": "T0263018B11 F29P (VHH, name in Kabat numbering, FLAG3-His6 tagged) VHH: EVQLVESGGGVVQPGGSLRLSCAASGFTPSSYAMYWVRQAPGKGLEWVSAISSGGGSTDYADSVKGRFTISRDNSKNTLYLQMNSLRPEDTALYYCAADTLYTSLTWYSYWGQGTLVTVSS", "koff": "0.0026 s⁻¹"}
{"binder": "T0263018B11 Y32N (VHH, name in Kabat numbering, FLAG3-His6 tagged) VHH: EVQLVESGGGVVQPGGSLRLSCAASGFTFSSNAMYWVRQAPGKGLEWVSAISSGGGSTDYADSVKGRFTISRDNSKNTLYLQMNSLRPEDTALYYCAADTLYTSLTWYSYWGQGTLVTVSS", "koff": "0.0025 s⁻¹"}
{"binder": "T0263018B11 A93V (VHH, name in Kabat numbering, FLAG3-His6 tagged) VHH: EVQLVESGGGVVQPGGSLRLSCAASGFTFSSYAMYWVRQAPGKGLEWVSAISSGGGSTDYADSVKGRFTISRDNSKNTLYLQMNSLRPEDTALYYCVADTLYTSLTWYSYWGQGTLVTVSS", "koff": "0.003 s⁻¹"}
{"binder": "T0263018B11 S31K (VHH, name in Kabat numbering, FLAG3-His6 tagged) VHH: EVQLVESGGGVVQPGGSLRLSCAASGFTFSKYAMYWVRQAPGKGLEWVSAISSGGGSTDYADSVKGRFTISRDNSKNTLYLQMNSLRPEDTALYYCAADTLYTSLTWYSYWGQGTLVTVSS", "koff": "0.0013 s⁻¹"}
{"binder": "T0263018B11 S56L (VHH, name in Kabat numbering, FLAG3-His6 tagged) VHH: EVQLVESGGGVVQPGGSLRLSCAASGFTFSSYAMYWVRQAPGKGLEWVSAISSGGGLTDYADSVKGRFTISRDNSKNTLYLQMNSLRPEDTALYYCAADTLYTSLTWYSYWGQGTLVTVSS", "koff": "0.00075 s⁻¹"}
{"binder": "T0263018B11 W100cV (VHH, name in Kabat numbering, FLAG3-His6 tagged) VHH: EVQLVESGGGVVQPGGSLRLSCAASGFTFSSYAMYWVRQAPGKGLEWVSAISSGGGSTDYADSVKGRFTISRDNSKNTLYLQMNSLRPEDTALYYCAADTLYTSLTVYSYWGQGTLVTVSS", "koff": "0.0082 s⁻¹"}
